The reported measurements were obtained from patent US6512000B1.

Where a name gives a salt, the structure may show the parent alone.
Measured Parameter: melting point

Illustrative cases are given below, each with its answer.
> print(dat)
                                   compound  measured.parameter  experimental.value
1  CC(C)CN(CCC(=N)N)C(=O)c1ccc2c(c1)nc(CCc1ccc(C(=N)N)cc1)n2C (as salt: hydrochloride)       melting point       204 to 210 °C
2  Cn1c(CCc2ccc(C(=N)N)cc2)nc2cc(C(=O)N(CCC(=N)N)Cc3cnc4ccccc4c3)ccc21 (as salt: hydrochloride)       melting point            > 220 °C

Now look at this entry.
Req: Look up melting point for this compound: CCOC(=O)C(Cc1ccc(C(=N)N)cc1)N(C)C(=O)c1ccc2c(c1)nc(CCc1ccc(C(=N)N)cc1)n2C (stereo not drawn) (as salt: formate)
Resp: 230 °C

====

molecular target: rh beta tryptase (Homo sapiens, UniProt P20231); construct: purchased Promega; assay: Tryptase inhibition test (cleavage of N-p-tosyl-Gly-Pro-Lys-para-nitroaniline, p-nitroaniline measured at 405 nm); type: biochemical; details: inhibition of rh beta tryptase at 10 μM test substance; substrate N-p-tosyl-Gly-Pro-Lys-para-nitroaniline 0.6 mM, pH 7.4, 37° C., 5 minutes
Sequence (P20231 31-275): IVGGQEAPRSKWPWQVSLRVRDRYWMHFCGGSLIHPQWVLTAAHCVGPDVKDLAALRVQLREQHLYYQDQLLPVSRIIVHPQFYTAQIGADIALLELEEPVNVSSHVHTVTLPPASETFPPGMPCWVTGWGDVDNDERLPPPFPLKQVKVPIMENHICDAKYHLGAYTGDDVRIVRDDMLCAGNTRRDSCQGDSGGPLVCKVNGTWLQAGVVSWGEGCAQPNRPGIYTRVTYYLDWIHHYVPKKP
Can you tell me inhibition at 10 µM for the items I'm about to list?
Answers are plain numbers, in %.

> print(dat)
                                   compound                               target.desc   measured.parameter  experimental.value
1  CCOCCCn1c(CCc2ccc(C(=N)N)cc2)nc2cc(C(=O)N(CCN)CCCc3ccccc3)ccc21  rh beta tryptase (Homo sapiens, UniProt P20231)  inhibition at 10 µM                  77
2  N=C(N)c1ccc(CCc2nc3cc(C(=O)N(CCN)CC4CCCCC4)ccc3n2CC2CC2)cc1  rh beta tryptase (Homo sapiens, UniProt P20231)  inhibition at 10 µM                  51
3  COc1cccc(CN(Cc2ccc(CN)cc2)C(=O)c2ccc3c(c2)nc(CCc2ccc(C(=N)N)cc2)n3CCc2ccccc2)c1  rh beta tryptase (Homo sapiens, UniProt P20231)  inhibition at 10 µM                  60

Now look at this entry.
Req: Look up inhibition at 10 µM for this compound: `CCOCCCn1c(CCc2ccc(C(=N)N)cc2)nc2cc(C(=O)N(CCN)CC3CCCCC3)ccc21`
Resp: 75

====

Target: rh beta tryptase (Homo sapiens, UniProt P20231)
Construct: purchased Promega
Assay: Tryptase inhibition test (cleavage of N-p-tosyl-Gly-Pro-Lys-para-nitroaniline, p-nitroaniline measured at 405 nm)
Type: biochemical
Conditions: inhibition of rh beta tryptase at 10 μM test substance; substrate N-p-tosyl-Gly-Pro-Lys-para-nitroaniline 0.6 mM, pH 7.4, 37° C., 5 minutes
Procedure: The compounds according to the invention are characterised by their tryptase-inhibiting activity. This ability to inhibit tryptase was investigated using the test described below. The measurement is carried out in Tris HCl buffer (100 mM), which additionally contains calcium (5 mM) and heparin (100 mg/ml), at pH 7.4. […] The substrate is digested with tryptase to form p-nitroaniline which can be measured at 405 nm. […]
Measured Parameter: inhibition at 10 µM (%)
Answers are plain numbers, in %.

> print(dat)
                                   compound                               target.desc  experimental.value
1  N=C(N)c1ccc(CCc2nc3cc(C(=O)N(Cc4ccc(CN)cc4)Cc4cccc(C(F)(F)F)c4)ccc3n2CC2CC2)cc1 [Example 202]  rh beta tryptase (Homo sapiens, UniProt P20231)                  58

List reported inhibition at 10 µM for each of these compounds:
1. CCCCN(Cc1ccc(CN)cc1)C(=O)c1ccc2c(c1)nc(CCc1ccc(C(=N)N)cc1)n2CCc1ccccc1 [Example 91]
2. Cc1ccccc1N1CCN(CCCn2c(CCc3ccc(C(=N)N)cc3)nc3cc(C(=O)N(CCN)Cc4ccccc4)ccc32)CC1 [Example 304]
3. CCOCCCn1c(CCc2ccc(C(=N)N)cc2)nc2cc(C(=O)N(Cc3ccc(CN)cc3)Cc3ccccc3F)ccc21 [Example 214]
4. CCOCCCn1c(CCc2ccc(C(=N)N)cc2)nc2cc(C(=O)N(CCN)Cc3ccc4ccccc4c3)ccc21 [Example 422]

Resp:
1: 62; 2: 51; 3: 54; 4: 58

List reported inhibition at 10 µM for each of these compounds:
1. COc1cccc(CN(CCN)C(=O)c2ccc3c(c2)nc(CCc2ccc(C(=N)N)cc2)n3CC2CCCO2)c1 (stereo not shown) [Example 274]
2. CCCCN(CCCC)CCCn1c(CCc2ccc(C(=N)N)cc2)nc2cc(C(=O)N(CCCC)Cc3ccc(CN)cc3)ccc21 [Example 87]

Resp:
57
59
